# tgt: FimH proteins (Escherichia coli, UniProt Q1R2J4)
# Construct: endogenous in cells; host or cells: UPEC strain UTI89 (whole bacteria)
# assay.details: hemagglutination inhibition (HAI) assay: UPEC UTI89 with guinea pig red blood cells
# Assay type: cell-based, uropathogenic Escherichia coli (UPEC) UTI89
# applied.conditions: read-out: HAI EC90 (minimum concentration for inhibiting hemagglutination)
# Protocol: In the present example, the mannose derivatives A1 to A107 that were prepared in Examples 1 to 12 were analyzed in hemagglutination inhibition (HAI) assays to determine inhibitory effects of the compounds on the function/activity of FimH proteins. 1. […] 2. […] When the plate was read, the wells in which complete agglutination occurred were used as 4HAU for the hemagglutination titer of the bacteria. […]
Hi! Could you tag entries with EC90 below 0.02 µM as Y, and those at or above as N? Much appreciated.

| compound | tgt | class.assignment |
| --- | --- | --- |
| O=c1ccc(C#C[C@H]2O[C@H](CO)[C@@H](O)[C@H](O)[C@@]2(O)C#Cc2ccccc2)cn1C1CCCCC1 [Compound A54] | FimH proteins (Escherichia coli, UniProt Q1R2J4) | Y |
| OC[C@@H](O)COc1ccc(-n2cc(C#C[C@H]3O[C@H](CO)[C@@H](O)[C@H](O)[C@@]3(O)C#Cc3cnn(C[C@H](O)CO)c3)cn2)cc1 [Compound A91] | FimH proteins (Escherichia coli, UniProt Q1R2J4) | Y |
| CNC(=O)c1cccc(-c2ccc(O[C@H]3O[C@H](CO)[C@@H](O)[C@H](O)[C@@]3(O)C#CC3CC3)c(C)c2)c1 [Compound A2] | FimH proteins (Escherichia coli, UniProt Q1R2J4) | Y |
| OC[C@H]1O[C@H](C#Cc2cnn(C3CCC3)c2)[C@](O)(C#Cc2ccccc2)[C@@H](O)[C@@H]1O [Compound A44] | FimH proteins (Escherichia coli, UniProt Q1R2J4) | Y |
| CC(C)n1cc(C#C[C@@]2(O)[C@@H](C#Cc3ccccc3)O[C@H](CO)[C@@H](O)[C@@H]2O)ccc1=O [Compound A23] | FimH proteins (Escherichia coli, UniProt Q1R2J4) | N |
| Cn1ncc(C#C[C@H]2O[C@H](CO)[C@@H](O)[C@H](O)[C@@]2(O)C#Cc2ccccc2)c1Cl [Compound A35] | FimH proteins (Escherichia coli, UniProt Q1R2J4) | N |
